// reported GI50 per item
Tested on: M14
Test: NCI tumour cell line growth inhibition, 48 h
Calls of active or inactive are those of the source. Rule as the data show it: active = GI50 up to about 1.1 µM and inactive = higher.
measure name: GI50

>>> df
                                    compound               result
 0  CCOC(=O)c1cc(C2CCN(Cc3ccccc3)C2=O)c(C(=O)C(=[N+]=[N-])C(C)=O)[nH]1 (stereo not drawn)  > 100 µM (inactive)
 1  COc1ccc(CC2NCCc3cc(OC)c(OC)cc32)cc1 (stereo not drawn)  > 100 µM (inactive)
 2     COc1cc(OC)cc(Oc2nc3ccccc3nc2C(=O)O)c1  > 100 µM (inactive)
 3  CC(C)CC1C(=O)NCCC(NC(=O)C(N)Cc2ccc(O)cc2)C(=O)NC(Cc2ccccc2)C(=O)NC(Cc2ccccc2)NC1=O (stereo not drawn)  > 100 µM (inactive)
 4  O=C1N/N=C\Nc2ccc(cc2)S(=O)(=O)c2ccc(cc2)/N=C\NNC1=O  > 100 µM (inactive)
 5  Nc1ncnc2c1ncn2C1OC(CSC(F)(F)F)C(O)C1O (stereo not drawn)  > 100 µM (inactive)
 6  CCOC(=O)C(C(=O)c1ccccc1C(=O)OC)=P(c1ccccc1)(c1ccccc1)c1ccccc1   > 10 µM (inactive)
 7  CC1=NN(c2cccc(Cl)c2)C2(SCC(=O)N2c2nc3ccccc3s2)C1=CC=Cc1ccccc1 (stereo not drawn)   32.1 µM (inactive)
 8  CS(C)(=O)=Nn1c(=O)n2n(c1=O)C1c3ccccc3C2c2ccccc21  > 100 µM (inactive)
 9  CC(C)(C)[Si](C)(C)OCC1OC(n2cc(I)c(=O)[nH]c2=O)C(O[Si](C)(C)C(C)(C)C)C1O[Si](C)(C)C(C)(C)C (stereo not drawn)   15.7 µM (inactive)
10  CN1CCN(c2ccc3nc(C4=C(O)C(=O)[C@@H]5C(=C4O)N=C(CO)N5C)[nH]c3n2)CC1  > 100 µM (inactive)
11  CC1=NN(C(=O)CSc2nc3ccc(I)cc3c(=O)n2Cc2ccccc2)C(=O)C1   31.7 µM (inactive)
12  Cc1cc2c(cc1C)NC1=C(O)C(c3c[nH]c4ccc(COc5ccccc5)cc34)OC1=N2 (stereo not drawn)  > 100 µM (inactive)

###

// reported GI50 per item
Test system: SK-MEL-2
Experiment: NCI tumour cell line growth inhibition, 48 h
Calls of active or inactive are those of the source. Cut-off read from the data, not from the text of the source: active = GI50 up to about 1.1 µM and inactive = higher.
measure name: GI50

>>> df
                                   molecule                result
0      c1ccc2c(c1)c1c(n2CCOCCN2CCOCC2)CCCC1    24.2 µM (inactive)
1  O=C1C2Nc3ccccc3SC2C(=O)N1c1cccc([N+](=O)[O-])c1 (stereo not given)  > 75.7 µM (inactive)
2  COc1ccc(S(=O)(=O)c2nnc(S(=O)(=O)Cc3ccccc3)s2)cc1    18.3 µM (inactive)
3          O=C(O)c1cc2c(s1)C(=O)c1sccc1C2=O    2.23 µM (inactive)
4  O=C1NN=C2C=C(c3ccc(Cl)cc3)CC(c3cccc(Br)c3)C12 (stereo not given)    84.5 µM (inactive)
5  COC(=O)CC1(O)C(C=C(C)C)C(C(=O)OC)C(=O)C(C(=O)OC)C1C(=O)OC (stereo not given)   > 100 µM (inactive)
6  O=C(NC(=S)Nc1ccc(Br)cc1)c1ccc2c(c1)Sc1ccccc1O2   > 100 µM (inactive)
7  CCOC(=O)C1C(=O)CC(C)(O)C(C(=O)OCC)C1c1ccc(N(C)C)cc1 (stereo not given)   > 100 µM (inactive)
8  Nc1ncnc2c1ncn2C1C=CC(COS(N)(=O)=O)C1 (stereo not given)    39.3 µM (inactive)
9  O=[N+]([O-])c1ccc(C2NC(=S)NC3c4cc([N+](=O)[O-])ccc4CCCC23)cc1 (stereo not given)   > 100 µM (inactive)
